Target: BRISC (Homo sapiens, UniProt P46736+Q15018)
Construct: made in house; host or cells: insect cells (MultiBac baculovirus)
Experiment: BRISC DUB inhibition assay with quenched K63-linked di-ubiquitin substrate (TAMRA fluorescence)
Assay type: biochemical
Conditions: Table 1, Activity Range Table
Description: High throughput screening. A baculoviral expression system was established to purify milligram quantities of the entire BRISC complex from insect cells. […] A 5 ml of enzyme solution with BRISC at 2 nM in assay buffer was made by adding 10 μl of BRISC working stock (1 μM) to 5 ml of assay buffer. […] The plate was then incubated for 30 min at room temperature in the dark and read with settings suitable for detecting TAMRA fluorescence (excitation wavelength of 540 nm and emission wavelength of 580 nm). […]
metric name: IC50

molecule=O=C(NC1CCNCC1)c1nn(S(=O)(=O)CCc2ccccc2)cc1NC(=O)c1c(Cl)cccc1Cl measured_result="1 to 10 µM"
molecule=O=C(NC1CCNCC1)c1nn(C(=O)c2c(Cl)cccc2Cl)cc1NC(=O)c1c(Cl)cccc1Cl measured_result="1 to 10 µM"

Look at this molecule and give its reported IC50. CC1CNCCC1NC(=O)c1nn(C(=O)c2c(Cl)cccc2Cl)cc1NC(=O)c1c(Cl)cccc1Cl (stereo not shown)
1 to 10 µM

Request the reported IC50 associated with O=C(NC1CNC1)c1nn(C(=O)c2c(Cl)cccc2Cl)cc1NC(=O)c1c(Cl)cccc1Cl
10 to 50 µM

Name the reported IC50 value associated with the molecule NCCCOc1ccc(S(=O)(=O)n2cc(NC(=O)c3c(Cl)cccc3Cl)c(C(=O)NC3CCNCC3)n2)cc1
50 to 300 µM

Given the entry O=C(NC1CCNCC1)c1nn(C(=O)Nc2cccc(Cl)c2)cc1NC(=O)c1c(Cl)cccc1Cl , report its measured IC50.
50 to 300 µM

What measured IC50 goes with CN(C(=O)c1nn(C(=O)c2c(Cl)cccc2Cl)cc1NC(=O)c1c(Cl)cccc1Cl)C1CNC1 ?
10 to 50 µM

###

Biological target: BRISC (Homo sapiens, UniProt P46736+Q15018)
Construct: made in house; host or cells: insect cells (MultiBac baculovirus)
Experiment: BRISC DUB inhibition assay with quenched K63-linked di-ubiquitin substrate (TAMRA fluorescence)
Format: biochemical
Conditions: Table 1, Activity Range Table
Listed here are compounds together with their documented IC50.

compound="COc1ccccc1NC(=O)n1cc(NC(=O)c2c(Cl)cccc2Cl)c(C(=O)NC2CCNCC2)n1 [Compound 18]" measured_result="10 to 50 µM"

Which IC50 is listed for O=C(NC1CCNCC1)c1nn(S(=O)(=O)c2cc(Cl)cc(Cl)c2)cc1NC(=O)c1c(Cl)cccc1Cl ?
1 to 10 µM

Look at this compound and give its reported IC50. CS(=O)(=O)n1cc(NC(=O)c2c(Cl)cccc2Cl)c(C(=O)NC2CCNCC2)n1
1 to 10 µM

Given O=C(NCCN1CCCC1)c1nn(C(=O)c2c(Cl)cccc2Cl)cc1NC(=O)c1c(Cl)cccc1Cl , state its recorded IC50.
10 to 50 µM

###

Target: BRISC (Homo sapiens, UniProt P46736+Q15018)
Construct: made in house; host or cells: insect cells (MultiBac baculovirus)
Assay: BRISC DUB inhibition assay with quenched K63-linked di-ubiquitin substrate (TAMRA fluorescence)
Assay type: biochemical
Settings: Table 1, Activity Range Table
metric name: IC50

molecule=O=C(NC1CCNCC1)c1nn(S(=O)(=O)c2ccc(Cl)cc2)cc1NC(=O)c1c(Cl)cccc1Cl metric_name=IC50 measured_result="1 to 10 µM"
molecule=COC(=O)COc1ccc(S(=O)(=O)n2cc(NC(=O)c3c(Cl)cccc3Cl)c(C(=O)NC3CCNCC3)n2)cc1 metric_name=IC50 measured_result="50 to 300 µM"

Bench note: what IC50 did COc1ccccc1NC(=O)n1cc(NC(=O)c2c(Cl)cccc2Cl)c(C(=O)NC2CCNCC2)n1 [Compound 19] show?
10 to 50 µM

Any idea what IC50 was measured for CN1CCC(NC(=O)c2nn(C(=O)c3c(Cl)cccc3Cl)cc2NC(=O)c2c(Cl)cccc2Cl)CC1 ?
1 to 10 µM

Requested read-out: IC50. Entry: O=C(Nc1cn(C(=O)c2c(Cl)cccc2Cl)nc1C(=O)N1CCNCC1)c1c(Cl)cccc1Cl
1 to 10 µM

What IC50 value was documented for this molecule, O=C(NC1C2CNCC21)c1nn(C(=O)c2c(Cl)cccc2Cl)cc1NC(=O)c1c(Cl)cccc1Cl (stereo not drawn) ?
1 to 10 µM

###

// values below are reported IC50
Target: BRISC (Homo sapiens, UniProt P46736+Q15018)
Construct: made in house; host or cells: insect cells (MultiBac baculovirus)
Test: BRISC DUB inhibition assay with quenched K63-linked di-ubiquitin substrate (TAMRA fluorescence)
Assay type: biochemical
Details: Table 2, method of Example 2; read-out: BRISC IC50 μM Range

smiles_record=C#CCCCCOc1ccc(S(=O)(=O)n2cc(NC(=O)c3c(Cl)cccc3Cl)c(C(=O)NC3CCNCC3)n2)cc1 system="BRISC (Homo sapiens, UniProt P46736+Q15018)" metric_name=IC50 measured_result="1 to 10 µM"
smiles_record=Cc1ncsc1-c1ccc(CNC(=O)[C@@H]2C[C@H](O)CN2C(=O)[C@@H](NC(=O)COCCOCCOCCn2cc(CCCCOc3ccc(S(=O)(=O)n4cc(NC(=O)c5c(Cl)cccc5Cl)c(C(=O)NC5CCNCC5)n4)cc3)nn2)C(C)(C)C)cc1 system="BRISC (Homo sapiens, UniProt P46736+Q15018)" metric_name=IC50 measured_result="0.1 to 1 µM"
smiles_record=CCOc1cc(C(C)(C)C)ccc1C1=N[C@@](C)(c2ccc(Cl)cc2)[C@@](C)(c2ccc(Cl)cc2)N1C(=O)N1CCN(CC(=O)NCCOCCOCCn2cc(CCCCOc3ccc(S(=O)(=O)n4cc(NC(=O)c5c(Cl)cccc5Cl)c(C(=O)NC5CCNCC5)n4)cc3)nn2)CC1 system="BRISC (Homo sapiens, UniProt P46736+Q15018)" metric_name=IC50 measured_result="0.1 to 1 µM"
smiles_record=C[C@@H]1CNCCN1C(=O)c1nn(C(=O)c2c(Cl)cccc2Cl)cc1NC(=O)c1c(Cl)cccc1Cl system="BRISC (Homo sapiens, UniProt P46736+Q15018)" metric_name=IC50 measured_result="1 to 10 µM"

# input compound: COC(=O)c1cnc2c(SCc3ccccn3)cccc2c1 ; wanted: its IC50
10 to 50 µM

###

Target: BRISC (Homo sapiens, UniProt P46736+Q15018)
Construct: made in house; host or cells: insect cells (MultiBac baculovirus)
Test: BRISC DUB inhibition assay with quenched K63-linked di-ubiquitin substrate (TAMRA fluorescence)
Type: biochemical
Settings: Table 1, Activity Range Table
metric name: IC50

Sample answers from the record:
smiles_record=CN(C(=O)c1nn(C(=O)c2c(Cl)cccc2Cl)cc1NC(=O)c1c(Cl)cccc1Cl)C1CCNCC1 measured_result="1 to 10 µM"
smiles_record=COC(=O)c1ccccc1NC(=O)n1cc(NC(=O)c2c(Cl)cccc2Cl)c(C(=O)NCCCN2CCCC2)n1 measured_result="50 to 300 µM"
smiles_record=O=C(NC1CCNCC1)c1nn(S(=O)(=O)CCc2ccc(Cl)cc2)cc1NC(=O)c1c(Cl)cccc1Cl measured_result="1 to 10 µM"

Consider the compound shown here: C[N+]1(C)CCC(NC(=O)c2nn(C(=O)c3c(Cl)cccc3Cl)cc2NC(=O)c2c(Cl)cccc2Cl)CC1 What is its recorded IC50?
10 to 50 µM

Quick one: IC50 of C#CCCCCOC(=O)COc1ccc(S(=O)(=O)n2cc(NC(=O)c3c(Cl)cccc3Cl)c(C(=O)NC3CCNCC3)n2)cc1 ?
10 to 50 µM

Query: IC50; subject: O=C(NC1CCNCC1)c1nn(S(=O)(=O)c2cc(C(F)(F)F)ccc2Cl)cc1NC(=O)c1c(Cl)cccc1Cl
50 to 300 µM

What value of IC50 has been recorded for this entry: O=C(N[C@H]1CCNC1)c1nn(C(=O)c2c(Cl)cccc2Cl)cc1NC(=O)c1c(Cl)cccc1Cl
1 to 10 µM

Given O=C(NC1CCNCC1)c1nn(S(=O)(=O)c2ccc(OCCCN3C(=O)c4ccccc4C3=O)cc2)cc1NC(=O)c1c(Cl)cccc1Cl , state its recorded IC50.
1 to 10 µM

Please look up its IC50: O=C(NC1CCNCC1)c1nn(S(=O)(=O)c2ccccc2)cc1NC(=O)c1c(Cl)cccc1Cl
10 to 50 µM

Recorded IC50 of O=C(N[C@@H]1CCNC1)c1nn(C(=O)c2c(Cl)cccc2Cl)cc1NC(=O)c1c(Cl)cccc1Cl , please.
1 to 10 µM

Item under review: O=C(NC1CCNCC1)c1nn(C(=O)Nc2ccc(Cl)cc2)cc1NC(=O)c1c(Cl)cccc1Cl . Reported IC50?
50 to 300 µM

Can you look up the measured IC50 of O=C(NC1CCNCC1)c1nn(S(=O)(=O)c2cccc(Cl)c2)cc1NC(=O)c1c(Cl)cccc1Cl for me?
50 to 300 µM
